- protocol details: Pharmacokinetics in fasted Beagle dogs
- Assay type: in vivo
- stated conditions: dog, plasma, intravenous and oral administration in 5% glucose solution, read-out: Oral bioavailability Fpo
parameter measured: bioavailability (%)

Any idea what its bioavailability is? The compound is "CN(CCc1ccccn1)C(=O)[C@@H](Cc1ccccc1)N(C)C(=O)[C@@H](Cc1ccc2ccccc2c1)N(C)C(=O)/C=C/CC(C)(C)N"
34

Any idea what its bioavailability is? The compound is "CN(C(=O)/C=C/CC(C)(C)N)[C@H](Cc1ccc2ccccc2c1)C(=O)N(C)[C@H](Cc1ccccc1)C(=O)NCCc1ccncc1"
26
